experiment: Clearance (pharmacokinetics) in dogs; type: in vivo; settings: dog, whole blood; male dogs, dose 0.927 mg/kg (2 umol/kg)
Readout: AUC(0-inf) (ng·h/mL)

P = COc1cc(CCc2cc(NC(=O)c3ccc(N4CCN(C)[C@H](C)C4)cc3)[nH]n2)cc(OC)c1
Q = COc1cc(CCc2cc(NC(=O)c3ccc(N4CCN(C)[C@@H](C)C4)cc3)[nH]n2)cc(OC)c1
Request: Kindly compare P with Q and tell me which has the lower AUC(0-inf) figure. State your choice using its label.
Response: Q

###

experiment: Clearance (pharmacokinetics) in dogs; type: in vivo; conditions: dog, whole blood; male dogs, dose 0.927 mg/kg (2 umol/kg); read-out: Vss
Readout: Vd (L/kg)

P = COc1cc(CCc2cc(NC(=O)c3ccc(N4CCN(C)[C@H](C)C4)cc3)[nH]n2)cc(OC)c1
Q = COc1cc(CCc2cc(NC(=O)c3ccc(N4CCN(C)[C@@H](C)C4)cc3)[nH]n2)cc(OC)c1
Request: Could you kindly indicate whether P or Q has the higher Vd value? Returns: label corresponding to the selected item.
Response: P
(P: 6.55 L/kg, Q: 3.71 L/kg)

###

assay: Clearance (pharmacokinetics) in rats; type: in vivo; details: rat, whole blood; male rats, dose 0.927 mg/kg (2 umol/kg); read-out: Vss
Readout: Vd (L/kg)

P = COc1cc(CCc2cc(NC(=O)c3ccc(N4CCN(C)[C@H](C)C4)cc3)[nH]n2)cc(OC)c1
Q = COc1cc(CCc2cc(NC(=O)c3ccc(N4CCN(C)[C@@H](C)C4)cc3)[nH]n2)cc(OC)c1
Request: Higher Vd: P or Q ? Please respond with the label that marks your chosen entry.
Response: Q
(Q: 2.58 L/kg, P: 1.74 L/kg)

###

target: UniProtKB P10635
Sequence (P10635 whole entry): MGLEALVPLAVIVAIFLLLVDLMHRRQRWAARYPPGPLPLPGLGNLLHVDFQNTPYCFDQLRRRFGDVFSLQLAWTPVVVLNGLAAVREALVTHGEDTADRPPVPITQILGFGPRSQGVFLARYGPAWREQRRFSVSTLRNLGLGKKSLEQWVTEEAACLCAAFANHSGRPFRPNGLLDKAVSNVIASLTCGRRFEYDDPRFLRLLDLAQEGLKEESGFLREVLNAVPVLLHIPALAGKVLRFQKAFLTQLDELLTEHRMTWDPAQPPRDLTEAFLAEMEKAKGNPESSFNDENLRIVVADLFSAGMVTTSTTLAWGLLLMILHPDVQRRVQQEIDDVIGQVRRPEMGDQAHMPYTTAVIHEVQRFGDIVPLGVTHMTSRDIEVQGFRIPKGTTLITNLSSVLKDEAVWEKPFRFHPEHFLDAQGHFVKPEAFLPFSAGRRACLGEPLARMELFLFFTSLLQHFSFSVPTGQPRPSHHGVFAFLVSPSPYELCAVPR
Readout: IC50

Request: Kindly state the measured IC50 obtained for COc1cc(CCc2cc(NC(=O)c3ccc(N4CCN(C)[C@@H](C)C4)cc3)[nH]n2)cc(OC)c1 with UniProtKB P10635.
Response: > 10 µM

###

experiment: Protein binding by equilibrium dialysis (rat); format: in vitro ADME; details: 20 μM compound, 10% plasma, 37° C., read-out: % free (protein binding)
Readout: fraction unbound at 18 h, 20 μM

1 = COc1cc(CCc2cc(NC(=O)c3ccc(N4CCN(C)[C@H](C)C4)cc3)[nH]n2)cc(OC)c1
2 = COc1cc(CCc2cc(NC(=O)c3ccc(N4CCN(C)[C@@H](C)C4)cc3)[nH]n2)cc(OC)c1
Request: Hi, I'm comparing 1 with 2 and wondering which one has the bigger number for fraction unbound at 18 h, 20 μM. Any idea? Kindly give the label for the entry you pick.
Response: 2
(2: 0.0091, 1: 0.0062)

###

test: Clearance (pharmacokinetics) in rats; assay type: in vivo; conditions: rat, whole blood; male rats, dose 0.927 mg/kg (2 umol/kg)
Readout: clearance (mL/min/kg)

a = COc1cc(CCc2cc(NC(=O)c3ccc(N4CCN(C)[C@H](C)C4)cc3)[nH]n2)cc(OC)c1 [Example 1b]
b = COc1cc(CCc2cc(NC(=O)c3ccc(N4CCN(C)[C@@H](C)C4)cc3)[nH]n2)cc(OC)c1 [Example 1a]
Request: Param pair: a , b . Output: the one whose clearance is numerically greater. Indicate your choice by writing its label.
Response: b
(b: 60.9 mL/min/kg, a: 32.7 mL/min/kg)

###

assay: Clearance (pharmacokinetics) in rats; assay type: in vivo; details: rat, whole blood; male rats, dose 0.927 mg/kg (2 umol/kg)
Readout: AUC(0-inf) (ng·h/mL)

P = COc1cc(CCc2cc(NC(=O)c3ccc(N4CCN(C)[C@@H](C)C4)cc3)[nH]n2)cc(OC)c1
Q = COc1cc(CCc2cc(NC(=O)c3ccc(N4CCN(C)[C@H](C)C4)cc3)[nH]n2)cc(OC)c1
Request: From the recorded data, which exceeds the other in AUC(0-inf): P or Q ? To answer, give the label that identifies your chosen option.
Response: Q
(Q: 473 ng·h/mL, P: 254 ng·h/mL)

###

molecular target: human cytochrome P450 (CYP) 3A4 (Homo sapiens, UniProt P08684)
Sequence (P08684 whole entry): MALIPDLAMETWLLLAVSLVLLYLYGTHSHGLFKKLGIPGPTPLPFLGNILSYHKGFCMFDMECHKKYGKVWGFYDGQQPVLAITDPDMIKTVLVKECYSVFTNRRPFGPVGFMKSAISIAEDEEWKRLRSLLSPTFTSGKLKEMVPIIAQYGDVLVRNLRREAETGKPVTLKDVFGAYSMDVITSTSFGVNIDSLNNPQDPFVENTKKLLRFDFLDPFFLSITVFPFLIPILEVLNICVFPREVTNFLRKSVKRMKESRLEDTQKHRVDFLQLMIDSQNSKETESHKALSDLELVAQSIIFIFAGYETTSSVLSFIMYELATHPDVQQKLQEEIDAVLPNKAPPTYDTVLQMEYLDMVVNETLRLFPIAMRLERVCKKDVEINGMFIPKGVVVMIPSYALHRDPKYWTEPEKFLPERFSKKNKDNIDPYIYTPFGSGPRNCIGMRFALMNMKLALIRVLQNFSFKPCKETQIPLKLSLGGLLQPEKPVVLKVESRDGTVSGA
Readout: IC50 (nM)
Quick note: give the figure in nM, leave out the unit.

Request: Using the record for COc1cc(CCc2cc(NC(=O)c3ccc(N4CCN(C)[C@@H](C)C4)cc3)[nH]n2)cc(OC)c1 [Example 1a] , report its IC50.
Response: 2940

###

Target: human cytochrome P450 (CYP) 2C19 (Homo sapiens, UniProt P33261)
Construct: made in house; host or cells: yeast (microsomal fraction)
Sequence (P33261 whole entry): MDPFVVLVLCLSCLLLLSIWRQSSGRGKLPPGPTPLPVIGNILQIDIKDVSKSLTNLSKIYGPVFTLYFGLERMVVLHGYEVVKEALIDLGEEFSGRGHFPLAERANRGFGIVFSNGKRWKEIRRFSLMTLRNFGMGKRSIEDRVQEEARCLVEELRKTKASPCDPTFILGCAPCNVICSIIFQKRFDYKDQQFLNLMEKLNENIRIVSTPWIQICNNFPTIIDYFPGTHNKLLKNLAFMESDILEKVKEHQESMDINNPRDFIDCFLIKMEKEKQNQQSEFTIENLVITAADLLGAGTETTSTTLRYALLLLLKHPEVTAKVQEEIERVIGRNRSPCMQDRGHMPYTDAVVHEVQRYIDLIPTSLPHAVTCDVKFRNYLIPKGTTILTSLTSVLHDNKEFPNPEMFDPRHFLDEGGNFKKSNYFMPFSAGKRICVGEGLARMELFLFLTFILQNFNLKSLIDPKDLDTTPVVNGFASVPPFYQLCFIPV
Test: Cytochrome P450 Inhibition Assay, CYP 2C19
Format: in vitro ADME
Conditions: test compound 0.1-10 μM, substrate MFC; read-out: Ic50 2C19
Method: Cytochrome P450 Inhibition Assay The inhibitory potential (IC50) of test compounds against 5 human cytochrome P450 (CYP) isoforms (1A2, 2C9, 2C19, 3A4 and 2D6) was assessed using an automated fluorescent end point in vitro assay modified from Crespi (Crespi and Stresser, J Pharmacol Toxicol Methods 2000, 44: 325-331). […] The activity of the 5 major human CYPs was determined from the biotransformation of a number of coumarin substrates to fluorescent metabolites, in the presence of NADPH. […]
Readout: IC50 (µM)
Record the value in µM, omitting the unit from your answer.

Request: Record request: IC50 value, item COc1cc(CCc2cc(NC(=O)c3ccc(N4CCN(C)[C@H](C)C4)cc3)[nH]n2)cc(OC)c1 [Example 1b]
Response: 8.01

###

experiment: Clearance (pharmacokinetics) in dogs; type: in vivo; conditions: dog, whole blood; female dogs, dose 0.927 mg/kg (2 umol/kg)
Readout: AUC(0-inf) (ng·h/mL)

A = COc1cc(CCc2cc(NC(=O)c3ccc(N4CCN(C)[C@@H](C)C4)cc3)[nH]n2)cc(OC)c1
B = COc1cc(CCc2cc(NC(=O)c3ccc(N4CCN(C)[C@H](C)C4)cc3)[nH]n2)cc(OC)c1
Request: Compare A and B and name the one whose reported AUC(0-inf) is smaller. Kindly state the label of the option you pick.
Response: A

###

Assay: Clearance (pharmacokinetics) in dogs
Type: in vivo
Settings: dog, whole blood; female dogs, dose 0.927 mg/kg (2 umol/kg); read-out: Vss
Method: For the dog dose of 0.927 mg/kg (2 umol/kg), the compounds were formulated in 10% DMSO:90% hydroxyl-propyl-β-cyclodextrin (25% w/v) in sorensens buffer pH 5 at 2 umol/ml. Each formulation was dosed (1 mL/kg) to a male and female dog (8-15 kg) which had been fasted overnight. Blood samples were taken via the jugular vein at 5, 10, 20 and 40 minutes, and 1, 2, 4, 6, 12 and 24 hours post dose. The blood samples were diluted 1:1 with water prior to anaylsis. […]
Readout: Vd (L/kg)

A = COc1cc(CCc2cc(NC(=O)c3ccc(N4CCN(C)[C@@H](C)C4)cc3)[nH]n2)cc(OC)c1 [Example 1a]
B = COc1cc(CCc2cc(NC(=O)c3ccc(N4CCN(C)[C@H](C)C4)cc3)[nH]n2)cc(OC)c1 [Example 1b]
Request: Which one would you say has the larger Vd value: A , or B ? Give the label under which the chosen entry appears.
Response: A
(A: 7.08 L/kg, B: 1.71 L/kg)
